target: Sigma-1 receptor; assay: Sigma-1 receptor competitive radioligand binding assay; settings: read-out: Sigma-1 Receptor Affinity, Ki
pKi: −log10 of the molar value.
Value Kind: pKi

Known pKi results, listed for orientation:
CC(C)Oc1ccc(CC[C@@H](C)N2Cc3cc4c(cc3C2)OCO4)cc1OC(C)C [compound 40] ... 8.11
C[C@H](CCc1ccc(OC(=O)N(C)C)c(OC(F)(F)F)c1)N1Cc2ccc(F)cc2C1 [compound 43] ... 6.42

I. C[C@H](CCc1ccc(F)cc1)N1Cc2cc3c(cc2C1)OCO3 [compound 23]
II. COC[C@H](CCc1ccc(Cl)c(Cl)c1)N1Cc2ccc(F)cc2C1 [compound 46]
[in] Of I and II , whose reported pKi is the larger number? API: response body contains the label of the selected item.
[out] I
(I: 7.80, II: 7.03)
